Hello, the source for this data is patent US20060073152A1, in case you need it.

Recorded IC50 for the following binders
Test system: T1, mouse serum albumin (mouse, UniProt P07724 25-608)
T1 construct: also called Mouse SA; MuSA
T1 sequence (P07724 25-608 limits assumed): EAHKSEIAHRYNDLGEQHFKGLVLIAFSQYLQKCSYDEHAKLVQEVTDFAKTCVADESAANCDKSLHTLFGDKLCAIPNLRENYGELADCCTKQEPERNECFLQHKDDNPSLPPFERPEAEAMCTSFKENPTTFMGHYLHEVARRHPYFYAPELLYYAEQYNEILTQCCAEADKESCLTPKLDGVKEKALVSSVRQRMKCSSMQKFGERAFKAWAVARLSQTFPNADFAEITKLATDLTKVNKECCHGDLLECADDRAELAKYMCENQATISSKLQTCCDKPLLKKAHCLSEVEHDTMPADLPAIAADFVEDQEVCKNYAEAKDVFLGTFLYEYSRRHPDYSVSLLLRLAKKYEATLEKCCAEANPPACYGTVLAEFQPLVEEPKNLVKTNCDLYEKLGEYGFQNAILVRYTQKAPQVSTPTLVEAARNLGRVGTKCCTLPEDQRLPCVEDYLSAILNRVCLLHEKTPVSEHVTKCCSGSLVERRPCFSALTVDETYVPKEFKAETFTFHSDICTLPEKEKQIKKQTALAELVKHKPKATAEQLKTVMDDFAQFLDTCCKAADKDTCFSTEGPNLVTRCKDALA
Test: peptide competition for albumin
Positions of bridges follow the written chain, without caps; N, C: chain ends. No end group written: not given here.
Write it as a number; the unit nM goes unstated.

Below are worked cases with known answers.
Binder	IC50 (nM)
Ac-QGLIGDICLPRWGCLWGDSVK-NH2 (cysteine pairing not given here, free peptide) [SA08]	10
DICLPRWGCLW-NH2 (not fully specified (bridges); cysteine pairing not given here, free peptide) [SA04]	40
QGLIGDICLPRWGCLWGDSV-NH2 (not fully specified (bridges); cysteine pairing not given here, free peptide) [SA07]	6
Ac-EDICLPRWGCLWEDD-NH2 (not fully specified (bridges); cysteine pairing not given here, free peptide) [SA09]	6

Exercise: Returns the measured IC50 for the input binder. Input: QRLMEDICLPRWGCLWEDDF-NH2 (disulfide 8-14 (inferred)) [SA06]
Key: 8

Exercise: Repeat with MEDICLPRWGCLWED-NH2 (not fully specified (bridges); cysteine pairing not given here, free peptide) [SA05]
Key: 6

Exercise: Repeat with Ac-MEDICLPRWGCLWED-NH2 (not fully specified (bridges); cysteine pairing not given here, free peptide) [SA12]
Key: 13

Exercise: Repeat with Ac-MEDICLPRWGCLWEDD-NH2 (not fully specified (bridges); cysteine pairing not given here, free peptide) [SA11]
Key: 17
